Biological target: USP25 (USP25-His6, Boston Biochem E-546) (Homo sapiens, UniProt Q9UHP3)
Construct: His6; purchased Boston Biochem E-546
Sequence (Q9UHP3 1-1055): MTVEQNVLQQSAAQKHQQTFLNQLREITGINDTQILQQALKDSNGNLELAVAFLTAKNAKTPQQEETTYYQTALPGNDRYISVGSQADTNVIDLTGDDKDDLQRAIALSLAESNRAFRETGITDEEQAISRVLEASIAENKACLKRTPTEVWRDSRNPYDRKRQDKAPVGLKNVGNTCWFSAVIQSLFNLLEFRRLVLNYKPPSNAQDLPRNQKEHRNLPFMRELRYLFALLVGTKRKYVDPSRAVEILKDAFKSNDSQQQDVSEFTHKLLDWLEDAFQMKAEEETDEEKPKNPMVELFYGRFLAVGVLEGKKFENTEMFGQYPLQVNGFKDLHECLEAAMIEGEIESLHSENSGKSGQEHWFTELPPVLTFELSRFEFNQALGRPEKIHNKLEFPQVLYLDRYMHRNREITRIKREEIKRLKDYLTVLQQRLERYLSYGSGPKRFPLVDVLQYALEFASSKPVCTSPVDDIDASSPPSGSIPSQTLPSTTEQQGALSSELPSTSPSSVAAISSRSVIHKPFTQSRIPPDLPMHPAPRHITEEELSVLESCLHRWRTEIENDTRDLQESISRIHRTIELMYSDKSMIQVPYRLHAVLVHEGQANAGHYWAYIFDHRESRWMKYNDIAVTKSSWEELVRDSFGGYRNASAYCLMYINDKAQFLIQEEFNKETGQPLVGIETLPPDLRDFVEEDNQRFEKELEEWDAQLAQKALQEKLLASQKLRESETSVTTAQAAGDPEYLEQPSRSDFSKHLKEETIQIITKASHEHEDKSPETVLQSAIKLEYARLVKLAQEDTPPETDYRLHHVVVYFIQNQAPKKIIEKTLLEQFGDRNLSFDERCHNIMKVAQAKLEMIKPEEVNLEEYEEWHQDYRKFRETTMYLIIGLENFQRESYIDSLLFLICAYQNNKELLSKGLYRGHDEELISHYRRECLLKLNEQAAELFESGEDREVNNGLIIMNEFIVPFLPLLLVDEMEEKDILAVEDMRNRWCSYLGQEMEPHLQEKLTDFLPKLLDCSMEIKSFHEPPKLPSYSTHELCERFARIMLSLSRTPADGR
Experiment: Ubiquitin-Rhodamine 110 Assay for USP25 Activity, Example A-2
Format: biochemical
Conditions: Ubiquitin-Rhodamine 110 assay, Example A-2; read-out: USP25 A-2 IC50 range
outcome-measure: IC50

Solved cases below.
CO[C@H]1CN(c2cc(F)c3c(c2)CC[C@H](NC(=O)c2sc4nc(C)ccc4c2N)C3)C[C@@H]1N [Example 136]	> 2000 nM
Cc1ccc2c(N)c(C(=O)N[C@H]3COc4cc(N5C[C@@H](N)[C@@]6(CCCO6)C5)ccc4C3)sc2n1 [Example 308]	200 to 2000 nM
O=C(N[C@@H]1COc2cc(N3CCNCC3)ccc2C1)c1cnc2c(ccn2C(F)F)c1 [Example 39]	> 2000 nM

Entry Cc1ccc2c(N)c(C(=O)N[C@H]3COc4cc(N5C[C@H]6CNC[C@@H]6C5)ccc4C3)sc2n1 [Example 43] ; IC50 = > 2000 nM
